# Target under test: SRMS (Srm) (Homo sapiens, UniProt Q9H3Y6)
# Sequence (Q9H3Y6 whole entry): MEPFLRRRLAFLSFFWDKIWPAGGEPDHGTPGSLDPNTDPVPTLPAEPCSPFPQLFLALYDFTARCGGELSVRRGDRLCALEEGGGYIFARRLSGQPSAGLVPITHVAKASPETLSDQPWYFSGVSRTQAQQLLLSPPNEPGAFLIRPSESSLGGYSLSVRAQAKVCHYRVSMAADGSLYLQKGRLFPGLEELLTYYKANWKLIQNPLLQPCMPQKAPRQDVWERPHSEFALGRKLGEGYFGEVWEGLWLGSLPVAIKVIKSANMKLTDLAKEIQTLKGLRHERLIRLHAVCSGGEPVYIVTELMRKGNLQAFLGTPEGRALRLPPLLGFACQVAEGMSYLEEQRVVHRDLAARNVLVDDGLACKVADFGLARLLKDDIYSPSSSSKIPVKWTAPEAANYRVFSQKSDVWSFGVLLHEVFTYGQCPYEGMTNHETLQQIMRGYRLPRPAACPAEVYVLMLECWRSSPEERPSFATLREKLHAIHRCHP
# Protocol summary: Tyrosine kinase inhibition assay
# Format: biochemical
# Experimental setup: single concentration 1.0 μM, read-out: percent inhibition
Result type: inhibition at 1 µM (%)

> print(dat)
                                   molecule  reading
1  COc1cc2nccc(Oc3ccc(NC(=O)C4(NC(=O)c5ccc(F)cc5)CC4)cc3F)c2cc1OC       12
2  COc1cc2nccc(Oc3ccc(NC(=O)C4(NC(=O)c5ccc(F)cc5)CC4)cc3F)c2cc1Oc1ccc(N)cc1F       74
3  COc1cc2nccc(Oc3ccc(NC(=O)C4(NC(=O)c5ccc(F)cc5)CC4)cc3F)c2cc1Oc1c(F)cc(N)cc1F       84
4  COc1cc2nccc(Oc3ccc(NC(=O)C4(C(=O)Nc5ccc(F)cc5)CC4)cc3)c2cc1OC [Cabozantinib, reference compound]       96
5  COc1cc2nccc(Oc3ccc(NC(=O)C4(C(=O)Nc5ccc(F)cc5)CC4)cc3F)c2cc1Oc1ccc(N)cc1F       99
